# SUBJECT OF TEST: chemokine receptors on THP-1 cells
# PROTOCOL SUMMARY: biotinylated peptide 2 on THP-1 cells, streptavidin-peroxidase, with and without 100 µM peptide 3; given as affinity constant
No end group written: not given here. *: point of attachment. Biotin = O=C1N[C@H]2[C@H](CS[C@H]2CCCCC(=O)*)N1
MEASUREMENT LABEL: Kd (µM)
All answers are understood in µM, so give the number only.

Input: What does the record list as Kd for Biotin-SYRRITSSKCPKEAV [N-terminal biotin-labeled derivative of peptide 2(1-15)[MCP-1]] ?
Output: 250
